Biological target: insulin degradation enzyme (IDE) (UniProt P14735 42-1019, limits assumed)
Assay: cell-based or functional assay
Bridge positions count the residues as written; N and C are the ends. Ends that are not written are not given here. I, II: the chains in the order shown.
Label label 1 when IDE Inhibition (90% inhibition at) is at or above 20 µg/mL; otherwise label label 0.

Known results for binders:
binder	discrete_label
HFYGVSNLQEFRYGLEGGCTDDTLL [R1 CTF25]	label 0
HFHGVSNLQEFRFMIGGGCSEEDAL [R2 CTF25]	label 0
VVAGAFVHFHGVSNLQEFRFMIGGGCSEEDAL (also: homodimer: inter-chain disulfide between Cys26 of both mer units) [R2 CTF32 R2 CTF32 homodimer]	label 0
VVAAAFVHFYGVSNLQEFRYGLEGGCTDDTLL [R1 CTF32]	label 1
VVAGAFVHFHGVSNLQEFRFMIGGGCSEEDAL [R2 CTF32]	label 1
VVAAAFVHFYGVSNLQEFRYGLEGGCTDDTLL (also: homodimer: inter-chain disulfide between Cys26 of both mer units) [R1 CTF32 R1 CTF32 homodimer]	label 1
R1 CTF32 R2 CTF32 heterodimer (disulfide I:26-II:26) peptide 1: VVAAAFVHFYGVSNLQEFRYGLEGGCTDDTLL peptide 2: VVAGAFVHFHGVSNLQEFRFMIGGGCSEEDAL	label 0

Now consider the entry below.
Prompt: Assess whether reported IDE Inhibition (90% inhibition at) for R1 CTF25 R2 CTF25 heterodimer (disulfide I:19-II:19) peptide 1: HFYGVSNLQEFRYGLEGGCTDDTLL peptide 2: HFHGVSNLQEFRFMIGGGCSEEDAL sits at 20 µg/mL or higher.
Response: label 0
